B1: NEUROD6 (parent)
chain: YHSPELTTPPGHGTLDNSKSMKPY

Variants of: B1
PROTOCOL NOTES: protein stability index of a GFP-peptide fusion (GPS, HEK-293T) (PSI 1-6); higher = more stable;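 note: lentivirally expressed fusions sorted by FACS into six bins by GFP to DsRed ratio, PSI derived from sequencing read proportions per bin multiplied by bin number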
SETTINGS: c terminus: a fixed tail appended
TEST READOUT: protein stability index
Provide a numeric answer; units are not to be included.

Identify protein stability index associated with the variant S3R 3.04

Identify protein stability index associated with the variant T7V 2.49

Identify protein stability index associated with the variant H12G 2.48

Identify protein stability index associated with the variant M21L 2.44

Identify protein stability index associated with the variant K19R 1.92

Identify protein stability index associated with the variant H12C 2.25

Identify protein stability index associated with the variant M21H 2.56

Identify protein stability index associated with the variant T7W 3.05

Identify protein stability index associated with the variant P23E 2.41

Identify protein stability index associated with the variant S3E 3.81

Identify protein stability index associated with the variant T14R 2.07

Identify protein stability index associated with the variant L15M 1.9

Identify protein stability index associated with the variant Y1A 5.09

Identify protein stability index associated with the variant P23V 2.18

Identify protein stability index associated with the variant S20I 1.7

Identify protein stability index associated with the variant L15I 2.17

Identify protein stability index associated with the variant H12M 2.56

Identify protein stability index associated with the variant K22F 2.25

Identify protein stability index associated with the variant T14L 1.86

Identify protein stability index associated with the variant H12A 2.16

Identify protein stability index associated with the variant T14A 2.44

Identify protein stability index associated with the variant D16S 2.26

Identify protein stability index associated with the variant N17C 1.69

Identify protein stability index associated with the variant T14N 3.02

Identify protein stability index associated with the variant S18V 2.38

Identify protein stability index associated with the variant S20V 1.92

Identify protein stability index associated with the variant K19N 2.44

Identify protein stability index associated with the variant H2V 2.25

Identify protein stability index associated with the variant S20H 1.87

Identify protein stability index associated with the variant P23Q 2.08

Identify protein stability index associated with the variant P10G 1.78

Identify protein stability index associated with the variant P23K 2.33

Identify protein stability index associated with the variant P4A 2.6

Identify protein stability index associated with the variant L15V 2.26

Identify protein stability index associated with the variant K19M 2.37

Identify protein stability index associated with the variant E5A 2.71

Identify protein stability index associated with the variant G13A 2.28

Identify protein stability index associated with the variant T14S 2.25

Identify protein stability index associated with the variant N17I 2.23

Identify protein stability index associated with the variant S18L 1.74

Identify protein stability index associated with the variant K22H 1.87

Identify protein stability index associated with the variant G11I 2.21

Identify protein stability index associated with the variant S3Y 2.02

Identify protein stability index associated with the variant H2M 4.18

Identify protein stability index associated with the variant E5Q 2.34

Identify protein stability index associated with the variant S20T 2.87
